- System: NCI-H522 lung
- Method description: NCI-60 one-dose screen, 48 h (100 = growth as untreated, 0 = no growth, -100 = all killed)
- Experimental setup: 10 µM unless noted
Compounds without any hit were thinned out: in the full panel of roughly 83,000, 20% have a hit. Activity calls are given as the source filed them. Rule for the calls: active = growth percent below 10; inactive = the rest.
Measured metric: growth

Compound	growth
CCCCc1ccc(NS(=O)(=O)c2cc3c4c(c2)CCN4C(=O)CC3)cc1	13.9% (inactive)
Cc1ccc(C2CC(c3ccc(Nc4nc(NCCO)nc(Nc5ccc(Cl)cc5)n4)cc3)=NN2c2cc(Cl)cc(Cl)c2)cc1 (stereo not given)	104% (inactive)
COC(=O)[C@H](NC(=O)C1(C)CCC[C@]2(C)[C@H]3C[C@H]4C(C(C)C)=C[C@]3(CC[C@@H]12)[C@@H]1C(=O)CCC(=O)[C@@H]14)C(C)C (stereo not given in full)	102% (inactive)
COC(=O)/C(=C\c1c(-c2ccccc2)[nH]c2ccccc12)S(C)(=O)=O	47.1% (inactive)

We now examine a further compound.
Note growth for the compound shown: COc1ccc(OC)c(/C=C/C(=O)c2c(C)nc3ccccc3c2/C=C/c2ccccc2)c1
23.7% (inactive)

* * *

- Test system: SW-620 colon
- Method description: NCI-60 one-dose screen, 48 h
- Experimental setup: 10 µM unless noted
This is part of a sample that, as a whole, favours compounds with a hit. Of some 83,000 tested, about 20% had one in any assay. Active and inactive are the calls of the source. The calls were made as follows: active = growth percent below 10; inactive = the rest.
I would appreciate it if you answered using one of these outcomes: class 1 = active, class 0 = inactive

Would you please look over these solved cases?
Smiles repr	Label
CCCCCCCCCCOC(=O)c1ccccc1C(=O)OCCCC	class 0
O=C(Nc1ccc(Cl)cc1F)c1cc(I)ccc1O	class 0
O=Nc1c(O)ccc2ccccc12.O=Nc1c(O)ccc2ccccc12.O=Nc1c([O-])ccc2ccccc12.[Fe+3]	class 0
N[C@@H](CC/[N+]([O-])=N/O)C(=O)O	class 0
O=c1oc2ccc(I)cc2c(=O)n1-c1ccc(I)cc1F	class 1

What outcome does the record of this test show for NCCOc1ccccc1/C=C1\c2ccccc2-c2ccc([N+](=O)[O-])cc21 ?
class 1

What outcome does the record of this test show for COC(=O)/C(CCC=C(C)C)=C1\[C@@H](OC(C)=O)C[C@@]2(C)[C@H]1CC(=O)[C@H]1[C@@]3(C)CC[C@H](NCc4ccccc4)[C@@H](C)[C@@H]3CC[C@@]12C ?
class 0

What outcome does the record of this test show for CCOC(=O)c1sc(-c2ccc(OS(=O)(=O)C[C@]34CCC(CC3=O)C4(C)C)c(C=O)c2)nc1C ?
class 0

What outcome does the record of this test show for Cc1sc2ncnc(Sc3nc4ccccc4[nH]3)c2c1C ?
class 1

* * *

Give growth for every item shown.
- System: HOP-62 NSCLC
- Method description: NCI-60 one-dose screen, 48 h (100 = growth as untreated, 0 = no growth, -100 = all killed)
- Experimental setup: 10 µM unless noted
Compounds without any hit were thinned out: in the full panel of roughly 83,000, 20% have a hit.
Give bare numbers, in %.

Consider the following illustrative entries.
Molecule	Test system	Measured metric	Observed
COc1ccc(-c2cc(=O)c3c(OC)c4ccoc4c(/C=C/C=O)c3o2)cc1	HOP-62 NSCLC	growth	15.5
CCCCOCc1cc(CN2CCN(C)CC2)c(O)c2ncccc12	HOP-62 NSCLC	growth	32.9
COC(=O)c1c2c(c(C)[n+]([O-])c1C)C(=O)C(NCc1ccc(Br)cc1)=CC2=O	HOP-62 NSCLC	growth	31.4
c1ccc(-c2ccc(-c3nc4ccccc4[nH]3)cc2)cc1	HOP-62 NSCLC	growth	80.5
COc1cc2nc(NC3CCCC3)nc(NC3CCN(C(C)C)CC3)c2cc1OC	HOP-62 NSCLC	growth	89.3
COc1cc(C(=O)Nc2ccc(-c3nc4ccccc4[nH]3)cc2)cc(OC)c1OC	HOP-62 NSCLC	growth	42.5

Give growth for each of the items listed below.
1. O=c1nc2sc3nc4ccccc4cc3cc-2s1
2. CN(C)/C=C1\SC(=Nc2ccc(Cl)cc2)NC1=O
3. COc1cc(/C=C2\CN(C)C/C(=C\c3cc(CN4CCCCC4)c(O)c(OC)c3)C2=O)cc(CN2CCCCC2)c1O
4. COc1cc(C2C(C#N)=C(N)OC3=C2C(=O)c2ccccc2C3=O)cc(OC)c1O (stereo not given)

104
114
65
34.2
